experiment: Inhibition against sigma receptor using displacement of 3 nM [3H]pentazocine in homogenate of guinea pig brain cerebellum
property_measured: pKi
Units for pKi: none; it is -log10 of a concentration expressed in mol/L.

Note down pKi recorded for CCCCCCCCN1CC[C@]2(C)c3cc(O)ccc3CC1[C@H]2C
8.55

// fetch pKi given entry C[C@H]1C2Cc3ccc(O)cc3[C@@]1(C)CCN2C
4.74

Look up and state reported pKi for CCCCCCCCCCN1CC[C@]2(C)c3cc(O)ccc3CC1[C@@H]2C
7.42

Query pKi for CCCCCCN1CC[C@@]2(C)c3cc(O)ccc3CC1[C@H]2C
8.64

Determine its reported pKi: CCCCCCCCN1CC[C@]2(C)c3cc(O)ccc3CC1[C@@H]2C
7.46

// Input: CCN1CC[C@]2(C)c3cc(O)ccc3CC1[C@@H]2C . Output its pKi only.
4.78

State its pKi: CCCCN1CC[C@]2(C)c3cc(O)ccc3CC1[C@@H]2C
6.98

For the compound CCCCCCCCCN1CC[C@]2(C)c3cc(O)ccc3CC1[C@H]2C , give its reported pKi.
7.92

Consider the compound CCCCCCCN1CC[C@]2(C)c3cc(O)ccc3CC1[C@H]2C . State its measured pKi.
8.72

Given the compound CCCN1CC[C@@]2(C)c3cc(O)ccc3CC1[C@H]2C , write its reported pKi.
7.37

Please supply the value of reported pKi for the item CCCCN1CC[C@@]2(C)c3cc(O)ccc3CC1[C@H]2C
8.22

Annotate the compound CCCCCCCN1CC[C@]2(C)c3cc(O)ccc3CC1[C@@H]2C with its measured pKi.
7.31

For CCCCCCCCCN1CC[C@]2(C)c3cc(O)ccc3CC1[C@@H]2C , write its pKi.
7.49

Fill in reported pKi for this entry: CCN1CC[C@@]2(C)c3cc(O)ccc3CC1[C@H]2C
5.96

Name the recorded pKi of the item CCCCCCN1CC[C@]2(C)c3cc(O)ccc3CC1[C@@H]2C in your answer.
7.40

Consider the compound CCCCCCCCCCN1CC[C@]2(C)c3cc(O)ccc3CC1[C@H]2C and give its recorded pKi.
7.16

Give the value of pKi reported for the following: CCCN1CC[C@]2(C)c3cc(O)ccc3CC1[C@@H]2C
6.13

Return pKi (reported value) for this compound: C[C@@H]1C2Cc3ccc(O)cc3[C@]1(C)CCN2
5.56

Supply pKi value. Item: C[C@@H]1C2Cc3ccc(O)cc3[C@]1(C)CCN2C
5.88

Given the compound C[C@H]1C2Cc3ccc(O)cc3[C@@]1(C)CCN2 , write its reported pKi.
5.17

---

Answer each item with its documented Ki.
assay: Inhibition against delta receptor from displacement studies using 1.5 nM [3H]DPDPE in rhesus monkey cortex membrane
# number only, unit nM dropped from output

Give the value of Ki reported for the following: CCCCCCCCN1CC[C@]2(C)c3cc(O)ccc3CC1[C@H]2C
1590

Read off the recorded Ki for CCN1CC[C@]2(C)c3cc(O)ccc3CC1[C@@H]2C
158

Provide only the value of recorded Ki for CCCCCCCCN1CC[C@]2(C)c3cc(O)ccc3CC1[C@@H]2C
114

Item CCCCCN1CC[C@@]2(C)c3cc(O)ccc3CC1[C@H]2C : provide Ki
7000

Provide one value: measured Ki of CCCCCCCCCN1CC[C@]2(C)c3cc(O)ccc3CC1[C@H]2C
2930

Report Ki for CCCCCCCCCN1CC[C@]2(C)c3cc(O)ccc3CC1[C@@H]2C
464

Tell us which Ki value is on record for CCCCN1CC[C@]2(C)c3cc(O)ccc3CC1[C@@H]2C
78

Give reported Ki value for C[C@@H]1C2Cc3ccc(O)cc3[C@]1(C)CCN2
7000

Return Ki for the following compound: CCCCCCN1CC[C@]2(C)c3cc(O)ccc3CC1[C@@H]2C
67

Specify measured Ki for CCCCCCCN1CC[C@]2(C)c3cc(O)ccc3CC1[C@@H]2C .
57

Give me measured Ki, please, for this compound: CCCCCCCN1CC[C@]2(C)c3cc(O)ccc3CC1[C@H]2C
7000

Give me measured Ki, please, for this compound: CCCCN1CC[C@@]2(C)c3cc(O)ccc3CC1[C@H]2C
7000

Consider the compound CCCN1CC[C@@]2(C)c3cc(O)ccc3CC1[C@H]2C and give its recorded Ki.
7000

Identify measured Ki corresponding to CCN1CC[C@@]2(C)c3cc(O)ccc3CC1[C@H]2C
7000

Tell me Ki reported for C[C@H]1C2Cc3ccc(O)cc3[C@@]1(C)CCN2C
152

Tell me its Ki given CCCCCCCCCCN1CC[C@]2(C)c3cc(O)ccc3CC1[C@@H]2C as the entry.
2580

Supply measured Ki of C[C@H]1C2Cc3ccc(O)cc3[C@@]1(C)CCN2 in your reply.
449

Tell me Ki reported for CCCCCN1CC[C@]2(C)c3cc(O)ccc3CC1[C@@H]2C
98

Quote Ki reported for CCCN1CC[C@]2(C)c3cc(O)ccc3CC1[C@@H]2C please.
37

Identify Ki associated with the compound C[C@@H]1C2Cc3ccc(O)cc3[C@]1(C)CCN2C
7000

---

test: Inhibition against mu receptor from displacement studies using 0.5 nM [3H]-DAMGO in rhesus monkey cortex membrane
pKi: −log10 of the molar value.
Binary call on pKi: condition met from 7 upward, condition not met beneath that.

Hello, I need to know if CCCCCCCCCN1CC[C@]2(C)c3cc(O)ccc3CC1[C@@H]2C has measured pKi not below 7. Thanks!
condition not met

Check this compound for pKi at or above 7: CCCCCCCN1CC[C@]2(C)c3cc(O)ccc3CC1[C@@H]2C
condition met

Is reported pKi greater than or equal to 7 here: CCCCCN1CC[C@@]2(C)c3cc(O)ccc3CC1[C@H]2C
condition not met

I'd appreciate it if you could say whether C[C@@H]1C2Cc3ccc(O)cc3[C@]1(C)CCN2 has pKi at least equal to 7.
condition not met

Record CCCN1CC[C@@]2(C)c3cc(O)ccc3CC1[C@H]2C ; criterion: pKi no lower than 7. Met?
condition not met

Please indicate if the recorded pKi for CCCCCCCCCCN1CC[C@]2(C)c3cc(O)ccc3CC1[C@@H]2C meets or exceeds 7.
condition not met

State whether the measured pKi reaches 7, counting equality as reaching it, for CCCCCCN1CC[C@]2(C)c3cc(O)ccc3CC1[C@@H]2C
condition met

Test whether the compound CCCCCCCN1CC[C@]2(C)c3cc(O)ccc3CC1[C@H]2C records pKi of 7 or higher.
condition not met

Please tell me: is the compound CCCCCCCCCCN1CC[C@]2(C)c3cc(O)ccc3CC1[C@H]2C at or over 7 in terms of pKi?
condition not met

Evaluate C[C@H]1C2Cc3ccc(O)cc3[C@@]1(C)CCN2C : pKi at minimum 7?
condition met

Evaluate CCCCCN1CC[C@]2(C)c3cc(O)ccc3CC1[C@@H]2C : pKi at minimum 7?
condition met

Please check the record CCCN1CC[C@]2(C)c3cc(O)ccc3CC1[C@@H]2C and state if its pKi is at or above 7.
condition met

Reported pKi reaches at least 7 for CCN1CC[C@]2(C)c3cc(O)ccc3CC1[C@@H]2C ?
condition met

API: above_or_equal(metric=pKi, cutoff=7) for item C[C@@H]1C2Cc3ccc(O)cc3[C@]1(C)CCN2C
condition not met

Entry CCCCCCCCN1CC[C@]2(C)c3cc(O)ccc3CC1[C@@H]2C : is its pKi no less than 7?
condition met

Is pKi for CCCCCCN1CC[C@@]2(C)c3cc(O)ccc3CC1[C@H]2C at or above 7?
condition not met

Does pKi meet or surpass 7 for CCCCN1CC[C@@]2(C)c3cc(O)ccc3CC1[C@H]2C ?
condition not met

Would you say CCCCN1CC[C@]2(C)c3cc(O)ccc3CC1[C@@H]2C shows pKi at minimum 7?
condition met

---

assay: Inhibition against kappa receptor from displacement studies using 1.5 nM [3H]U-69593 in rhesus monkey cortex membrane
property_measured: log10(Ki) (log10 of the value in nM)
Each number you see is log10 of Ki, and the unit inside the log is nM.

Tell me its log10(Ki) given CCCCCCCCCN1CC[C@]2(C)c3cc(O)ccc3CC1[C@H]2C as the entry.
3.35

Give the reported value of log10(Ki) for this record: CCCCCCCN1CC[C@]2(C)c3cc(O)ccc3CC1[C@@H]2C
1.51

Fill in reported log10(Ki) for this entry: CCN1CC[C@@]2(C)c3cc(O)ccc3CC1[C@H]2C
3.58

Please look at this molecule and report its log10(Ki): CCCCCCCCN1CC[C@]2(C)c3cc(O)ccc3CC1[C@H]2C
3.35

// fetch log10(Ki) given entry CCCCCCCCN1CC[C@]2(C)c3cc(O)ccc3CC1[C@@H]2C
1.89

Give me measured log10(Ki), please, for this molecule: CCCCCCCN1CC[C@]2(C)c3cc(O)ccc3CC1[C@H]2C
2.86

Determine its reported log10(Ki): CCCCCN1CC[C@@]2(C)c3cc(O)ccc3CC1[C@H]2C
2.87

Consider the molecule CCCCN1CC[C@@]2(C)c3cc(O)ccc3CC1[C@H]2C and give its recorded log10(Ki).
2.89

Specify measured log10(Ki) for CCCN1CC[C@@]2(C)c3cc(O)ccc3CC1[C@H]2C .
2.66

Return the recorded log10(Ki) value; entry: CCCCCCCCCN1CC[C@]2(C)c3cc(O)ccc3CC1[C@@H]2C
2.85

Quickly give me recorded log10(Ki) for CCN1CC[C@]2(C)c3cc(O)ccc3CC1[C@@H]2C
1.20

Every entry's value here was drawn from BindingDB's records for doi:10.1021/jm00046a026.
